Listing: apparent KD of MS2 coat protein of selected sequences
# Tested on: MS2 coat protein
# assay comment: apparent KD of MS2 coat protein, switch OFF state (with FMN for OFF switches, without FMN for ON switches); designed switch direction (-1 OFF switch, 1 ON switch): -1; higher = weaker reporter binding
# conditions: FMN input: 0 or 200 uM; Eterna round: R93 (includes R88 designs)
Unit nM implied. Number only.

Use these answered entries as a reference point.
sequence code	apparent KD of MS2 coat protein (nM)
AUAAGUCGAGGAUAUACAAAAUGCUAGCGAAAGCUAGCAUAACAUGAGGAUCACCCAUGUAGAAGGCGACAAUA [Tetraloop hairpin BlockHead Variation2]	21.3
AAAAAGGCAGGAUAUACAUGAGGAUCACCCAUGUAGUUGACAAAAAAGAGUCAACAGUGUAGAAGGGCCAAAAA [Exclusion3-cac1]	22.1

Inquiry: Look up and state reported apparent KD of MS2 coat protein for AAACGUUGAGGAUAUACGAAAAAGGGUAGGUCAAAAAAAACACAUGAGGAUCACCCAUGUAGAAGGCAACGAAA [Similarities v.1 (13nt loop FMN+)]
Reply text: 45.1

Inquiry: Look up and state reported apparent KD of MS2 coat protein for AAAAAGGCAGGAUAUACAUGAGGAUCACCCAUGUAAAGAAAGAAAGAAGAAAGGGAAAGUAGAAGGGCCAAAAA [Ex3 sub 1]
Reply text: 41.2

Inquiry: Look up and state reported apparent KD of MS2 coat protein for CCUGUGUGAGGAUAUGGUAAAAAAAAAAAAAAAUAGCUCCUCCAGAAGGCACAUGAGGAUCACCCAUGUCGUGG [Jolly's Folly 16 - Jieux - Exclusion 4]
Reply text: 73.9

Inquiry: Look up and state reported apparent KD of MS2 coat protein for GUGUACAGAGGAUAUACAUGAGCAUGGAAUCAUGCAGGAUCACAUGAGGAUCACCCAUGUAGAAGGCUGUACAC [LROPPY Exclusion 2 - v06_mod Brourd]
Reply text: 39.8

Inquiry: Look up and state reported apparent KD of MS2 coat protein for AAGACUAGAGGAUAUACAUGAGGAUCACCCAUGUAACUGUCAGGAAACUGACGGAGAUGUAGAAGGCUAGUCAA [Mat - Exclusion 3 - Neo mod - D75]
Reply text: 38.4

Inquiry: Look up and state reported apparent KD of MS2 coat protein for AAGAGUAGAGGAUAUACAUGAGGAUCACCCAUGUAAUCCAGAUAAGGAAGCAUGUCGUGUAGAAGGCUGCAUGA [MOD 2 of Nando (MS2 Riboswitches- Exclusion 3)]
Reply text: 14.4
